# Target Desc: Nuclear receptor subfamily 5 group A member 2 (Homo sapiens)
# Assay: LRH-1 (NR5A2) inverse agonists, retest, confirmation, cell-based, luminescence (AID 651613);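 also: HEK293T cells co-transfected with LRH-1 and StAR promoter luciferase reporter; 0% = vehicle wells and 100% = parental cells lacking receptor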
# Condition Notes: cell-based LRH-1 luciferase reporter, inverse agonism; at 3.6 µM; active compounds read high
Reported Property: inhibition (%)
Field format: number, assumed %, no unit text.

Form: molecule = COc1ccc(NC(=O)CN2C(=O)NC3(CCCC3)C2=O)cc1 ; inhibition = 51.2

inhibition for CCCCCCCN(C(=O)CCl)c1ccccc1C is 49.9

Given item Cc1cc(C)cc(NS(=O)(=O)c2ccc3c(c2)c(=O)n(C)c(=O)n3C)c1 , the value recorded as its inhibition is 54.4

###

# Assay: inhibitors of NFAT-driven beta-lactamase reporter, confirmation, counter-screen for GALR2 antagonist project, CHO NFAT-bla cells, FRET readout (AID 867);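 also: 0% = 500 nM thapsigargin stimulated wells and 100% = unstimulated BSA only wells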
# Condition Notes: thapsigargin-stimulated, at 4.2 µM, active compounds read high
This is one part of the list.
Reported Property: inhibition (%)
// return numeric value only (unit: %, not printed)

Reference set (3 entries):
Compound | Unit Of Measure | Numeric Readout
CC[C@H]1CN2CCc3cc(OC)c(OC)cc3[C@@H]2C[C@@H]1C[C@H]1NCCc2cc(OC)c(OC)cc21 | % | 92.8
COC(=O)Cc1cc(=O)oc2c(C)c(O)ccc12 | % | 16.5
Cc1nnnn1/C(=C\c1ccccc1)C(=O)OCC(=O)N1CC2(C)CC1CC(C)(C)C2 (centres undefined) | % | 16.1

// switching to the query compound
Form field inhibition, entry COc1ccc(/C=C/C(=O)Nc2ccc(C34CC5CC(CC(O)(C5)C3)C4)cc2)cc1OC : 21.4

###

# Target Desc: Nuclear receptor coactivator 1 (Homo sapiens) (UniProt Q15788)
# Sequence (Q15788 whole entry, looked up): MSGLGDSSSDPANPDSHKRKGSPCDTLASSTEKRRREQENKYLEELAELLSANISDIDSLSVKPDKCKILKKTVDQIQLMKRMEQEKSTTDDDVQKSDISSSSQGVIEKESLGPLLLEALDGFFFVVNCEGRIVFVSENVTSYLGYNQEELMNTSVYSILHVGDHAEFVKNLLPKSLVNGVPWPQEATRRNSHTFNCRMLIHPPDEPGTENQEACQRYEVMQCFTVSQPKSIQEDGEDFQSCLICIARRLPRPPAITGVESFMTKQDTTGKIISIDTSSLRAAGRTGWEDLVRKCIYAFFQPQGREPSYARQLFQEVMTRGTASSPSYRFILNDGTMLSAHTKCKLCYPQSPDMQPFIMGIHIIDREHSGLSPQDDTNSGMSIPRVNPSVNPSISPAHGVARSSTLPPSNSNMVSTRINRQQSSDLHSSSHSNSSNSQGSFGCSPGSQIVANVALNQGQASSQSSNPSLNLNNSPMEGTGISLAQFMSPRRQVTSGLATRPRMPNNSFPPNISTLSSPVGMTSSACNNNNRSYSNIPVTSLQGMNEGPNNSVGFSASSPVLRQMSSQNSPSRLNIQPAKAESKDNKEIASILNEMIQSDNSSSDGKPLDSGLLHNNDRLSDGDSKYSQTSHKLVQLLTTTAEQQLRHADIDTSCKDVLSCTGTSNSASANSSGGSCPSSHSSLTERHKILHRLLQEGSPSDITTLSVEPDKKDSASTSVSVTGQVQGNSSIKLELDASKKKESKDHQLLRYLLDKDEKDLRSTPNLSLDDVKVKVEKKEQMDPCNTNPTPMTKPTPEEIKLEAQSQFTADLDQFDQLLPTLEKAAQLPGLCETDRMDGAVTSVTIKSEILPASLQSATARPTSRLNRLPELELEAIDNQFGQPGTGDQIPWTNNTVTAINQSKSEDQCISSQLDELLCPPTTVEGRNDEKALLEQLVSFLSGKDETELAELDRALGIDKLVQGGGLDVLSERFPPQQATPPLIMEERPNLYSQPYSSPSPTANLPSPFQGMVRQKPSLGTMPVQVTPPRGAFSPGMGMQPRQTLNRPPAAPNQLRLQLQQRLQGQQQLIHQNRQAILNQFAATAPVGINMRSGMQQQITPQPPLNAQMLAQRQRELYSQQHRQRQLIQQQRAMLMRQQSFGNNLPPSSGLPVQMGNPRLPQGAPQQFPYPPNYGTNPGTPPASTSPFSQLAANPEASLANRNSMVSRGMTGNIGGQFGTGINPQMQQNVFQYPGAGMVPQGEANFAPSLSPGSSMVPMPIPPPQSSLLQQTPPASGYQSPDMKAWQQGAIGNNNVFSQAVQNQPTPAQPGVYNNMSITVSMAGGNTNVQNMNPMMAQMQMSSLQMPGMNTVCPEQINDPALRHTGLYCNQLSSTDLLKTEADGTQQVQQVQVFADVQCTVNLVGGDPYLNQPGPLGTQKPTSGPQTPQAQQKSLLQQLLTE
# Assay: SRC1 coactivator transcriptional activity inhibitors, confirmation, cell-based, luminescence, quadruplicate (AID 588820);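 also: 0% = DMSO wells and 100% = gossypol 36 µM treated wells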
# Condition Notes: HEK293 GAL4-SRC1 luciferase reporter, at 3.6 µM
Activity calls are given as the source filed them.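 Rule for the calls: active = mean inhibition above 46.68%, the untreated control wells mean plus 3 SD; inactive = the rest.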
Respond using exactly one of the listed classes: active, inactive

Any idea what this test logged for COc1ccc2cc3c(N)nn(C(=O)c4ccccc4[N+](=O)[O-])c3nc2c1 ?
active

I would be grateful if you could indicate the recorded call for Cc1ccc(-c2nnc(SCC(=O)Nc3ccccc3F)o2)cc1 .
inactive

Which outcome was entered for the molecule CCN(CC)c1ccc(/C=C/c2ccc3ccc(OC)cc3[n+]2CC)cc1 in this test?
inactive

What is the recorded call for this molecule in the test? COc1ccc(CN(C)C(=O)c2ccc(OCC(=O)Nc3cccc(C(F)(F)F)c3)c(OC)c2)cc1
inactive

###

# Target Desc: Glutathione S-transferase omega-1 (Homo sapiens) (UniProt P78417)
# Sequence (P78417 whole entry, looked up): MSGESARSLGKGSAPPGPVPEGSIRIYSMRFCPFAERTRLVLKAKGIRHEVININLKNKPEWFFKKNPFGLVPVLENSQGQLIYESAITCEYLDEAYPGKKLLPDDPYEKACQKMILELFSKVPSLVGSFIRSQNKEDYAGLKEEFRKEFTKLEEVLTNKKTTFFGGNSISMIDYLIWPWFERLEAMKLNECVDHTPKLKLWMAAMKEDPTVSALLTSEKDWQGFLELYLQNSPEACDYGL
# Assay: GSTO1 inhibitor hit confirmation, counter-screen for RBBP9 inhibitor project, biochemical, fluorescence polarization, triplicate (AID 2176);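 also: loss of polarization as inhibitors block binding of rhodamine sulfonate ester activity probe; 0% = GSTO1 with DMSO and 100% = wells lacking GSTO1 enzyme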
# Condition Notes: recombinant GSTO1, probe fluorescence polarization; at 5.96 µM; active compounds read high
This is one part of the list.
# label = bin(measured inhibition), where bins are class A: < 8%; class B: ≥ 8% and < 30%; class C: ≥ 30%

Compound | Label
COc1ccc(S(=O)(=O)N2CCOCC2)cc1NC(=O)CSc1ncnc2ccccc12 | class B
c1ccc(CSc2nnc(-c3ccco3)c(-c3ccco3)n2)cc1 | class C
CC1=C/C(=N\OS(=O)(=O)c2ccccc2)C=CC1=O | class A
CCOC(=O)C1=C(c2ccc(OC)cc2)C(=O)c2ccccc2C1=O | class B
C[n+]1ccccc1C1CCCC/C1=N\Nc1ccc([N+](=O)[O-])cc1[N+](=O)[O-] (stereo not given) | class A

Please indicate the class for CC(=O)N(C1=C(Cl)C(=O)c2ccccc2C1=O)c1ccc(C(=O)O)cc1 based on its inhibition.
class C

Record Cc1ccc(C(=O)N/N=C/c2sc(=O)n(Cc3cccc(C(=O)O)c3)c2Cl)cc1 — which class?
class C

###

# Target Desc: Steroidogenic factor 1 (Homo sapiens) (UniProt Q13285)
# Sequence (Q13285 whole entry, looked up): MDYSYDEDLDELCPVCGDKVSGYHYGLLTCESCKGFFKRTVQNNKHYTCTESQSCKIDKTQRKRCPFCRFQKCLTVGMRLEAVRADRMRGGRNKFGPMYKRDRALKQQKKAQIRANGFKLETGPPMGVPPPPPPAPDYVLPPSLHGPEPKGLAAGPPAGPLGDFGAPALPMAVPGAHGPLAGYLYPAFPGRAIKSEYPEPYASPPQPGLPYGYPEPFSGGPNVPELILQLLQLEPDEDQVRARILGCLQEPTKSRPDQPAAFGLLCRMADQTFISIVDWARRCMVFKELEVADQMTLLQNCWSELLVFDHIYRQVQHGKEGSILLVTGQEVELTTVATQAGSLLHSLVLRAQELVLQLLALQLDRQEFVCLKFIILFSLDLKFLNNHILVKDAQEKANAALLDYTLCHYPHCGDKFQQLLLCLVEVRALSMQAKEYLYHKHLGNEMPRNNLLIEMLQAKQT
# Assay: SF1 (NR5A1) inverse agonists, counter-screen for LRH-1 inverse agonist project, cell-based, luminescence, high throughput (AID 651614);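 also: cells cotransfected with StAR promoter reporter and SF1 expression vector; 0% = vehicle on cells with receptor and 100% = vehicle on cells lacking receptor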
# Condition Notes: cell-based SF1 luciferase reporter, at 3.6 µM, active compounds read high
Note to self: values exactly at 60% are label 1. So inhibition at or above 60% is label 1, below is label 0.

Identify whether the reported inhibition of the following compound is 60% or greater: CN(C)CCNC(=O)c1cccc2nc3cccc(F)c3nc12
label 1

Hi team, for Cc1nnsc1C(=O)NC1CCCc2c1cnn2-c1ccc(C(C)(C)C)cc1 (stereo unspecified) , is the recorded inhibition at or above 60%?
label 1

Check if inhibition >= 60% (inclusive). Item: Cc1ccc(C)c(NC(=O)CSc2nnc(-c3n[nH]c4ccccc34)o2)c1
label 0

inhibition >= 60% for Cc1ccc(NC(=O)O/N=C/c2c(C)nn(C(C)(C)C)c2C)cc1Cl ?
label 1

Could you tell me if the measured inhibition of CC1CCCN(c2ncnc3c2cnn3-c2ccc(Cl)cc2)C1 (stereo unspecified) reaches 60% or more?
label 1

For this compound, is measured inhibition 60% or higher? COC(=O)c1c(NC(=O)c2ccc([N+](=O)[O-])o2)sc2c1CCN(C(C)C)C2
label 0

inhibition >= 60% for O=C(N/N=C/c1c(O)ccc2ccccc12)c1cccnc1 ?
label 1

hey, is inhibition for this one >= 60%? Cc1nn(C(C)(C)C)c(C)c1/C=N/OC(=O)Nc1ccc(Cl)cc1
label 1

###

# Target Desc: Platelet-activating factor acetylhydrolase (Homo sapiens) (UniProt Q13093)
# Sequence (Q13093 whole entry, looked up): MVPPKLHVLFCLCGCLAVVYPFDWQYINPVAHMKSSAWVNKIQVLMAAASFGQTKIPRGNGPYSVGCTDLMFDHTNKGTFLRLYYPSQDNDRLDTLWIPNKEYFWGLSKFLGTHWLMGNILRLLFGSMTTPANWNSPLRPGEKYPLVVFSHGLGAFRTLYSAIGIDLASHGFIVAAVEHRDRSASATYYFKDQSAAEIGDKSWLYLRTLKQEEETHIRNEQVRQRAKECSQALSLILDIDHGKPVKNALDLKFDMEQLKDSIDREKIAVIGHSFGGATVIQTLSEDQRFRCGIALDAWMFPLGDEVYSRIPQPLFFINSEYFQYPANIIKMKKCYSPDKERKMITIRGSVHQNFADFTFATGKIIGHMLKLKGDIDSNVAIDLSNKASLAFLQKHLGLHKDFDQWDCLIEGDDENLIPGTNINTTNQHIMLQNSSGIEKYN
# Assay: pPAFAH (PLA2G7) enzyme inhibitors, confirmation, biochemical, fluorescence polarization, human (AID 463230);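 also: 0% = enzyme with DMSO and 100% = wells lacking pPAFAH enzyme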
# Condition Notes: recombinant pPAFAH, FP-Rh probe fluorescence polarization; at 3.39 µM
This is one part of the list. Active and inactive are the calls of the source.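 How the source made its calls: active means mean inhibition of the triplicate above the hit cutoff set for the earlier primary screen (cut at about 25% in these data); inactive means the rest.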
Answer with one of the outcomes true = active, false = inactive

Compound | Label
Oc1c(Br)cc(/C=N/NC(=S)NCC2CCCO2)cc1Br (configuration not stated) | true
CN(C)[C@@H]1C(=O)C(C(N)=O)=C(O)[C@@]2(O)C(=O)C3=C(O)c4c(O)ccc(Cl)c4[C@@H](O)[C@H]3C[C@@H]12 | false
OC(CNCC1CCCO1)Cn1c2ccc(Br)cc2c2cc(Br)ccc21 (configuration not stated) | true
COc1ccc(OC)c(Nc2nc(-c3ccc(O)c(O)c3)cs2)c1 | true
CSc1nnc(SCc2nc3sc(C(=O)O)c(C)c3c(=O)[nH]2)s1 | true

Answer briefly: the call reported for COc1cccc2c(C)c(C(=O)O)[nH]c12 in this assay.
true

Can you look up the reported call for Cc1cc(/C=N/Nc2ccc([N+](=O)[O-])cn2)c(C)n1-c1cccc(C(=O)O)c1 for me?
false

What is the recorded call for this compound in the test? Cc1ccc(S(=O)(=O)NCc2csc(C)n2)c(C)c1
false

Status in this test for CCc1ccc(CN(C)C(=O)CCc2nnc(-c3ccc(-c4ccccc4)cc3)o2)nc1 ?
false

// param item: Cc1cc(C(=O)CSc2nc(N)cc(=O)[nH]2)c(C)n1CCc1ccc(Cl)cc1 ; yields the recorded call
true

Could you kindly confirm the outcome this assay logged for Cc1cc2nc3c(=O)n(Cc4ccccc4)c(=O)[nH]c3nc2cc1N ?
true

###

# Assay: StAR promoter reporter inhibitors, counter-screen for LRH-1 inverse agonist project, cell-based, luminescence, high throughput (AID 651611)
# Condition Notes: StAR promoter luciferase reporter counterscreen, at 3.6 µM, active compounds read high
Threshold check on inhibition: at or above 10% gives True, strictly below gives False.

Compound | Label
COc1ccc(-n2c(N)c(C(=O)NCc3cccnc3)sc2=S)cc1 | False

API: above_or_equal(metric=inhibition, cutoff=10%) for item NS(=O)(=O)c1ccc(N=Nc2c(O)[nH]c3ccc(Br)cc23)cc1
True

Does C/C(=N\NC(N)=S)C1(C)CCCCC1 have a reported inhibition of at least 10%?
True

Quick check, inhibition >= 10%? Cc1ccc(C(C)C)c(OCc2ccc(C(=O)N/N=C/c3ccc(O)cc3O)cc2)c1
True

###

Below, each entry is listed alongside its reported inhibition.
# Target Desc: Steroidogenic factor 1 (Homo sapiens)
# Assay: SF1 (NR5A1) inverse agonists, counter-screen for LRH-1 inverse agonist project, cell-based, luminescence, high throughput (AID 651614);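 also: cells cotransfected with StAR promoter reporter and SF1 expression vector; 0% = vehicle on cells with receptor and 100% = vehicle on cells lacking receptor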
# Condition Notes: cell-based SF1 luciferase reporter, at 3.6 µM, active compounds read high
# number only, unit % dropped from output

Compound | Reported Property | Unit Of Measure | Numeric Readout
CN(C(=O)OC(C)(C)C)c1ccc(-c2nc3ccccc3s2)cc1 | inhibition | % | 77.3

inhibition for Steroidogenic factor 1 (Homo sapiens) with input COc1cccc(/C=N/Nc2ncnc3scc(-c4ccccc4)c23)c1O equals 89.4

Reported Steroidogenic factor 1 (Homo sapiens) inhibition for item O=C(CCl)N(c1ccccc1)C1CCCCC1 was 66.2

Field inhibition (Steroidogenic factor 1 (Homo sapiens)), entry CN(Cc1cnc2nc(N)nc(N)c2n1)c1ccc(C(=O)N[C@@H](CCC(=O)O)C(=O)O)cc1 : 55.4

Test item O=C(Nc1ccc(F)cc1)c1oc2ccccc2c1NC(=O)C1CC1 ; Steroidogenic factor 1 (Homo sapiens); reported inhibition was 62.2

The measured inhibition that CC(NC(=O)c1ccc([N+](=O)[O-])o1)C1CC2CCC1C2 (stereo not given) showed for Steroidogenic factor 1 (Homo sapiens) is 44.2

Record for Cc1ccc(NC(=O)CSc2nc3[nH]c(=O)cc(O)c3s2)c(Br)c1 under target or system Steroidogenic factor 1 (Homo sapiens): inhibition reported as 46.5

inhibition for Steroidogenic factor 1 (Homo sapiens) with input CCOc1ccc(OCCN2C(=O)NC(Cc3c[nH]c4ccccc34)C2=O)cc1 (stereo not given) equals 58.2

Lab note: compound O=C(Nc1ccc(S(=O)(=O)Nc2ccccc2)cc1)c1ccc(CN2CCOCC2)cc1 tested on Steroidogenic factor 1 (Homo sapiens); recorded inhibition was 57.4

The observed inhibition for Cc1ccc(C)c(NC(=O)CSc2nc3[nH]ncc3c(=O)[nH]2)c1 when tested with Steroidogenic factor 1 (Homo sapiens) stands at 56
